- Tested on: USP25 (USP25-His6, Boston Biochem E-546) (Homo sapiens, UniProt Q9UHP3)
- Construct: His6; purchased Boston Biochem E-546
- Sequence (Q9UHP3 1-1055): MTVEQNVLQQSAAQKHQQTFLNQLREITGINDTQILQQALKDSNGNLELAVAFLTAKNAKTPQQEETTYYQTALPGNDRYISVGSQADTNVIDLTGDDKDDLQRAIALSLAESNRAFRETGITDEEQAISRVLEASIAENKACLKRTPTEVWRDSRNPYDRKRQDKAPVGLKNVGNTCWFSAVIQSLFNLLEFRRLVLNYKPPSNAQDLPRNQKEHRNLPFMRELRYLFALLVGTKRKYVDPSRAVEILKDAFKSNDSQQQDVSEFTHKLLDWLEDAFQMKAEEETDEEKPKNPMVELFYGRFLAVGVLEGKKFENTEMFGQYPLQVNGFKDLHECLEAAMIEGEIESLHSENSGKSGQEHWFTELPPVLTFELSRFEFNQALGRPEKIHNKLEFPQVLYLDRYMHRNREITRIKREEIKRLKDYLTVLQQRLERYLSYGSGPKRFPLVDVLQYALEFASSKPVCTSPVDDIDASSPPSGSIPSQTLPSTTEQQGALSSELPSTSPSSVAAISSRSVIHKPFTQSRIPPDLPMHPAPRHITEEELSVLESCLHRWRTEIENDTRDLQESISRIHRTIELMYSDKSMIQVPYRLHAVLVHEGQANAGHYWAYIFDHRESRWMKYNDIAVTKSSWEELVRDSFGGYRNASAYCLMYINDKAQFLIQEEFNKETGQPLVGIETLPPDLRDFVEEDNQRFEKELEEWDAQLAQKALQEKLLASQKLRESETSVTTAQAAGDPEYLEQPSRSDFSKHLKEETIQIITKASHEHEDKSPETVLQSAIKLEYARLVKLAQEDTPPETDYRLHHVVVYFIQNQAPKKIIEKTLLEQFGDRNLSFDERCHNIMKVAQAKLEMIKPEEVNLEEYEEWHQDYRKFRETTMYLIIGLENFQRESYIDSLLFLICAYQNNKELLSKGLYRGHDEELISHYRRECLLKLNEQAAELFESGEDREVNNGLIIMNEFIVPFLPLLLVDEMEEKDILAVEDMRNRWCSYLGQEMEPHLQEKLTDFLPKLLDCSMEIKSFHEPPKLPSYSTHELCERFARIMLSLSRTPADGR
- Protocol: Ubiquitin-Rhodamine 110 Assay for USP25 Activity, Example A-2
- Assay type: biochemical
- Experimental parameters: Ubiquitin-Rhodamine 110 assay, format Example A-2; read-out: USP25 A-2 IC50 range
Measure: IC50

In: Record request: IC50 value, item Cc1cnc2c(N)c(C(=O)N[C@@H]3CCc4cc(N5CC6CCC(C5)N6)c(C#N)cc4C3)sc2n1 (single isomer, unassigned)
Out: > 2000 nM

In: Record request: IC50 value, item CO[C@H]1CN(c2ccc3c(n2)CC[C@@H](NC(=O)c2sc4nc(C)cnc4c2N)C3)C[C@@H]1N (single isomer, unassigned)
Out: > 2000 nM

In: Record request: IC50 value, item Cc1ccc2c(N)c(C(=O)N[C@H]3COc4nc(N5CCNCC5)ccc4C3)sc2n1
Out: 200 to 2000 nM

In: Record request: IC50 value, item Cc1ccc2c(N)c(C(=O)N[C@@H]3CCc4c(ccc(N5CC6CCC(C5)N6)c4F)C3)sc2n1 (single isomer, unassigned)
Out: > 2000 nM

In: Record request: IC50 value, item Cc1nc2sc(C(=O)N[C@H]3CCc4cc(N5CCNCC5)ccc4C3)c(N)c2s1 (single isomer, unassigned)
Out: > 2000 nM

In: Record request: IC50 value, item Cc1nc2sc(C(=O)N[C@H]3CCc4cc(N5CC6CCC(C5)N6)ccc4C3)c(N)c2s1 (single isomer, unassigned)
Out: > 2000 nM

The measurements presented in this section are drawn from patent US11524966B1.
